molecular target: human activated kallikrein enzyme (Homo sapiens); experiment: Plasma kallikrein inhibition, fluorogenic PFR-AMC substrate, 500 pM activated kallikrein format; assay type: biochemical; conditions: 500 pM activated kallikrein, 300 uM PFR-AMC, 30 min preincubation, 10 min reaction; read-out: Primary Dose Response Assay: Average EC50
Sequence (P03952 391-638 limits assumed): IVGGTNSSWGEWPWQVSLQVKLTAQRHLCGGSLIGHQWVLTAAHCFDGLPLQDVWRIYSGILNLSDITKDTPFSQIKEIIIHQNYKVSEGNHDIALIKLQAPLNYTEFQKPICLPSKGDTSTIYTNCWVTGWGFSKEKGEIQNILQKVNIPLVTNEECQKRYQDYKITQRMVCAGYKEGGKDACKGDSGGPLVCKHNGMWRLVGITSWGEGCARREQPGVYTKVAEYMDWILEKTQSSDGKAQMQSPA
Sequence (P03952 20-390 partner limits assumed): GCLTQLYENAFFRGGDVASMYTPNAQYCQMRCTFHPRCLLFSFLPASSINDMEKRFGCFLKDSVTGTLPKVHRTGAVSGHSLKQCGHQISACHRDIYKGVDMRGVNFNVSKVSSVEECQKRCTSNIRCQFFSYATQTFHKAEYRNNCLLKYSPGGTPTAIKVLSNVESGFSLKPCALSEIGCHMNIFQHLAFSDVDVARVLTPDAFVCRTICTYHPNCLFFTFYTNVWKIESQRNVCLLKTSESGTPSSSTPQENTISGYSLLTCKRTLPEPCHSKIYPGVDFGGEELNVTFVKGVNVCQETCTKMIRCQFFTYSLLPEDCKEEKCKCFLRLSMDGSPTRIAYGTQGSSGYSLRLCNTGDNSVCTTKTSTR
pEC50: −log10 of the molar value.
Consider the following compounds; for each one, report its pEC50.

# Compound, pEC50
measured = [
    ("Cc1ccnc([C@H]2C[C@@H]2C(=O)Nc2cc(NCc3cn4cc(C5CC5)cc(N5CCCC5=O)c4n3)ncn2)n1 (racemic) [Example 389]", "> 9.00"),
]

// input: 5 compounds below; output: pEC50 for each
1. Cc1ccnc([C@H]2C[C@@H]2C(=O)Nc2cc(NC(c3cn4cc(C5CC5)cc(N5CC(=O)N(C)C5=O)c4n3)C(F)(F)F)ncn2)n1 (stereo partly shown)
2. O=C(Nc1cc(NCc2cn3cc(C4CC4)cc(N4CCN(C5COC5)CC4)c3n2)ccn1)[C@H]1C[C@@H]1c1cccc(Cl)c1
3. O=C(Nc1cc(NCc2cn3cc(C4CC4)ccc3n2)ncn1)[C@H]1C[C@@H]1c1n[nH]c2ccc(Cl)cc12 (racemic)
4. CSc1nc(NCc2cn3cc(C4CC4)ccc3n2)cc(NC(=O)[C@@H]2C[C@H]2c2cccc(Cl)c2)n1 (racemic)
5. Cc1ccnc([C@H]2C[C@@H]2C(=O)Nc2cc(OCc3cn4cc(C5CC5)cc(N5CC6CC6C5=O)c4n3)cnn2)n1 (stereo partly shown)

### Response
7.00 to 8.00
> 9.00
< 5.22
6.00 to 7.00
> 9.00

For the 3 compounds below, give their pEC50 values.
1. N#Cc1ccc(Cl)cc1[C@H]1C[C@@H]1C(=O)Nc1cc(NCc2cn3cc(C4CC4)ccc3n2)ccn1 (single isomer, unassigned) [Example 84]
2. O=C(Nc1cc(NCc2cn3cc(C4CC4)cc(N4CCCC4=O)c3n2)ccn1)[C@@H]1C[C@H]1c1cccc(Cl)c1 (relative stereo)
3. Cc1ccnc([C@H]2C[C@@H]2C(=O)Nc2cc(N3C[C@@H](O)C[C@@H]3c3cn4cc([C@H]5C[C@@H]5C)ccc4n3)ncn2)n1 (relative stereo)

### Response
1. > 9.00
2. > 9.00
3. 8.00 to 9.00

Batch lookup, pEC50 per entry.
1. O=C1CN(c2cc(C3CC3)cn3cc(CNc4ccnc(NC(=O)[C@H]5C[C@@H]5c5cc(Cl)ccn5)n4)nc23)C(=O)N1 (racemic)
2. O=C(Nc1cc(NCc2cn3cc(C4CC4)cc(C4(F)COC4)c3n2)ncn1)[C@H]1C[C@@H]1c1cccc(Cl)c1 (racemic)
3. CCc1cc(N2CC(=O)N(C)C2=O)c2nc(CNc3cc(NC(=O)[C@H]4C[C@@H]4c4nccc(C)n4)nc(C)n3)cn2c1
4. CN1CCC(F)(c2cc(C3CC3)cn3cc(CNc4ccnc(NC(=O)[C@H]5C[C@@H]5c5cccc(Cl)c5)c4)nc23)CC1
5. O=C(Nc1cc(NCc2cn3cc(C4CC4)cc(N4CCN5CC(O)CC5C4)c3n2)ncn1)[C@H]1C[C@@H]1c1cccc(Cl)c1 (stereo partly shown)

### Response
1. > 9.00
2. 8.00 to 9.00
3. > 9.00
4. > 9.00
5. 8.00 to 9.00

For every item below, please supply its pEC50.
1. CC(C)(O)c1cc(C2CC2)cn2cc(CNc3cc(NC(=O)[C@H]4C[C@@H]4c4cccc(Cl)c4)ncn3)nc12
2. CN(C)C1CN(c2cc(C3CC3)cn3cc(CNc4ccnc(NC(=O)[C@H]5C[C@@H]5c5cccc(Cl)c5)c4)nc23)C1
3. Nc1ccc(Cl)cc1[C@H]1C[C@@H]1C(=O)Nc1nccc2nn(Cc3cn4cc(C5CC5)ccc4n3)cc12 (racemic)

### Response
8.00 to 9.00
> 9.00
7.00 to 8.00
